- Method notes: Primary qHTS for small molecule stabilizers of the endoplasmic reticulum resident proteome: Secreted ER Calcium Modulated Protein (SERCaMP) assay (AID 1508630); also: % is scaled to controls: 0 for no effect and ±100 for the full control effect
- Measurement context: SH-SY5Y GLuc-SERCaMP (Gaussia luciferase released on ER calcium loss) secretion, thapsigargin, luminescence; series mostly up to 38.4 µM
Results filed as inconclusive are left out. Calls of active or inactive are those of the source. Calls follow the shape of the dose curve; as a rule, active = well fitted inhibition curve with a large enough effect; inconclusive = small, poorly fitted or top-dose-only effect; inactive = no such curve, though single readings can be large or run the other way.
Measured metric: outcome

1. O=c1c(-c2ccccc2)nc2cnc(Nc3ccccc3)nc2n1C[C@H]1CCCO1 = inactive
2. COc1cccc(-c2nccc(NCc3cccs3)n2)c1 = inactive
3. COc1ccccc1CNc1ccnc(-c2ccccc2CN(C)C)n1 = inactive
4. O=C(c1ccncc1)N1CCC[C@@]2(CCN(Cc3ccccc3)C2)C1 = inactive
5. Cc1noc(C)c1-c1ccc2ncnc(NCc3ccccc3)c2c1 = inactive
6. CC(C)CN1CCCC2(CCN(C(=O)c3cccn3C)CC2)C1 = inactive

* * *

- Method notes: S16 Schwann cell viability assay (CellTiter-Glo assay) (AID 624031);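 also: native untransfected S16 rat Schwann cells; cellular ATP luminescence as a viability measure; plate controls were DMSO-treated cells for no effect and cell-free wells for full effect; nearly all actives have a fitted effect of over 70% in size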
- Measurement context: S16 rat Schwann cells viability, 24 h; series mostly up to 25.7 µM
- Protocol: Charcot-Marie-Tooth-Association [CMTA] National Center for Advancing Translational Sciences [NCATS] […] Native S16 cells were seeded in white solid-bottom 1536 well plates at between 500-750 cells/6uL in DMEM medium containing 10% FBS, w/o phenol red. […] Then one volume of CellTiter-Glo assay reagent (Promega) was added to each well for cell viability measured by a ViewLux plate reader (PerkinElmer). […]
Inconclusive results are not listed. Active and inactive are the calls of the source. Calls follow the shape of the dose curve; as a rule, active = well fitted cell-killing curve with a large enough effect; inconclusive = small, poorly fitted or top-dose-only effect, or effect the other way; inactive = flat fitted curve, though single readings scatter.
Measured metric: outcome

1) CCN1C(=O)N[C@@H](c2ccccc2)C1=O = inactive
2) CN1CCCC[C@@H]1CCN1c2ccccc2Sc2ccc(S(C)=O)cc21 (some centres undefined) = inactive
3) CC(C)(C)NC[C@H](O)c1cc(O)cc(O)c1 = inactive
4) CO/N=C(/C(=O)NC1C(=O)N2C(C(=O)O)=C(CSc3nc(=O)c(O)nn3C)CSC12)c1csc(N)n1 (centres undefined) = inactive
5) CC(C)NC[C@H](O)c1cc(O)cc(O)c1 = inactive
6) CN(C)[C@H]1C(=O)C(C(=O)NCN2CCCC2)=C(O)[C@]2(O)C(=O)C3=C(O)c4c(O)cccc4[C@@](C)(O)[C@H]3C[C@@H]12 = inactive
7) CCN(CC)CC#CCOC(=O)[C@@](O)(c1ccccc1)C1CCCCC1 = inactive
8) CC1(C)O[C@@H]2C[C@H]3[C@H]4C[C@H](F)C5=CC(=O)C=C[C@@]5(C)[C@@H]4[C@H](O)C[C@]3(C)[C@]2(C(=O)CO)O1 = inactive
9) CCC[C@H]1C(=O)N2C(N(C)C)=Nc3ccc(C)cc3N2C1=O = inactive

* * *

- Test system: CP252
- Method notes: qHTS profiling for inhibitors of Plasmodium falciparum proliferation (AID 504749); also: nearly all actives have a fitted effect of over 60% in size
- Measurement context: P. falciparum in erythrocytes, SYBR Green DNA, 72 h; series mostly up to 12.8 µM
Inconclusive results are not listed. The source made the active and inactive calls. Calls follow the shape of the dose curve; as a rule, active = well fitted inhibition curve with a large enough effect; inconclusive = small, poorly fitted or top-dose-only effect; inactive = flat fitted curve, though single readings scatter.
Outcome codes: 1.0 = active, 0.0 = inactive

1) CN(N=O)C(=O)N[C@H]1[C@@H](O)[C@H](O)[C@H](CO)O[C@@H]1O = 0.0
2) CC(C)(O/N=C(\C(=O)N[C@@H]1C(=O)N2C(C(=O)[O-])=C(C[n+]3ccccc3)CS[C@@H]12)c1csc(N)n1)C(=O)O = 0.0
3) O=C(c1ccccc1)c1ccc2n1CC[C@H]2C(=O)O = 0.0
4) C[n+]1ccccc1/C=N\O = 0.0
5) CCN(CC)CCC[C@H](C)Nc1c2ccc(Cl)cc2nc2ccc(OC)cc12 = 1.0
6) CCN1C(=O)N[C@@H](c2ccccc2)C1=O = 0.0
7) CC[C@H](NC(C)C)[C@H](O)c1ccc(O)c(O)c1 = 0.0
8) CCCN[C@@H](C)C(=O)Nc1c(C)csc1C(=O)OC = 0.0
9) CO[C@H]1C[C@@H](O[C@@H]2[C@H](C)[C@H](O[C@@H]3O[C@@H](C)C[C@@H](N(C)C)[C@@H]3O)[C@H](C)C[C@]3(CO3)C(=O)[C@H](C)[C@H](O)[C@H](C)[C@H](C)OC(=O)[C@@H]2C)O[C@@H](C)[C@H]1O = 0.0
10) CCCN(CCC)C(=O)[C@@H](CCC(=O)O)NC(=O)c1ccccc1 = 0.0
11) CC[C@]1(C)CC(=O)NC1=O = 0.0

* * *

List of Potency values.
- Target under test: Glucocorticoid receptor (Homo sapiens)
- Method notes: GR-GFP Redistribution (AID 450); also: potency is read from the fitted curve at half-maximal effect
- Measurement context: U2OS GR-GFP nuclear translocation, laser cytometry, 2 h
Active and inactive are the calls of the source.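 How the source made its calls: active means compounds whose dose series gives a full or clear partial fitted curve of increased nuclear translocation; inconclusive means weak partial curve or effect only at the top dose; inactive means no dose-dependent translocation response.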
Measured metric: Potency

1. Cc1nc2cnc(N3CCNCC3)nc2n(CCC#N)c1=O = > 9.22 µM (inactive)
2. COc1ncc2nc(CCc3ccccc3)c(=O)n(Cc3cccs3)c2n1 = > 9.22 µM (inactive)
3. COc1cccc(Cn2c(=O)c(-c3ccc(Cl)cc3)nc3cnc(N4CCN(C)CC4)nc32)c1 = > 9.22 µM (inactive)
4. CN(C)c1ccc(-c2cncnc2NCc2ccccc2)cc1 = > 46 µM (inactive)
5. COc1cccc(-c2cc(NCc3cccnc3)ncn2)c1 = > 46 µM (inactive)
6. c1ccc2c(Nc3ccncc3)nc(-c3ccoc3)nc2c1 = > 46 µM (inactive)
7. COc1ccc(CNc2nc(-c3ccc(N(C)C)cc3)nc3ccccc23)c(OC)c1 = > 46 µM (inactive)
8. COCCn1c(=O)c(C)nc2cnc(N3CCOCC3)nc21 = > 9.22 µM (inactive)
9. COc1cccc(Cn2c(=O)c(C)nc3cnc(Nc4cccc(OC)c4)nc32)c1 = > 9.22 µM (inactive)
10. CN(C)Cc1ccccc1-c1cc(-n2ccnc2)ncn1 = > 46 µM (inactive)
11. Cc1noc(C)c1-c1ccc2ncnc(N(C)Cc3ccco3)c2c1 = > 46 µM (inactive)

* * *

- Method notes: Stat Signaling Pathway (AID 446);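 also: ME-180 cervical cancer cells given 40 pM IL-6 alongside compound; SIE-controlled beta-lactamase reporter measured as 460/530 nm FRET emission ratio; % is scaled to controls: 0 for no effect and ±100 for the full control effect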
- Measurement context: ME-180 SIE beta-lactamase reporter, IL-6 stimulated, 5 h; at 7.69 µM (top of the series) unless noted
Inconclusive results are not listed.
Measured metric: activity, negative = inhibition (%)

1) COc1ccccc1CCn1c(=O)cnc2cncnc21 = -7.13
2) COc1cccc(Cn2c(=O)c(-c3cn(C)c4ccccc34)nc3cncnc32)c1 = -0.403
3) COc1ccc(C(=O)N2CCC3(CC2)CN(CC(C)C)C3)cc1 = 6.78
4) FC(F)(F)c1ccccc1-c1ccc2ncnc(NCc3cccs3)c2c1 = -16.1
5) COCC(=O)N1CCC[C@@]2(CCN(c3ccncc3)C2)C1 = 5.19
6) Cn1c(=O)c(CCc2ccccc2)nc2cnc(Nc3ccccc3)nc21 = -11.6
7) COc1cccc(Cn2c(=O)cnc3cnc(Oc4cccc(Cl)c4)nc32)c1 = -20.6
8) CS(=O)(=O)N1CCC2(CCCN(c3ncccn3)C2)CC1 = -8.29
9) Cn1cc(-c2nc3cnc(Oc4cccc(Cl)c4)nc3n(C3CC3)c2=O)c2ccccc21 = 9.54
10) COC(=O)N1CCC2(CCCN(c3ncccn3)C2)CC1 = 1.72
11) O=S(=O)(c1ccccc1)N1CCC2(CC1)CN(c1ccccc1)C2 = -6.85

* * *

- Method notes: AP1 Signaling Pathway (AID 357);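 also: ME-180 reporter cells stimulated with EGF at its EC50 level; % is scaled to controls: 0 for no effect and ±100 for the full control effect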
- Measurement context: ME-180 AP-1-bla reporter, EGF-induced, beta-lactamase ratio, 5 h; at 7.69 µM (top of the series) unless noted
Records with an inconclusive call do not appear.
Measured metric: activity change, negative = inhibition (%)

1. O=C(c1ccncc1)N1CCC[C@@]2(CCN(c3ccncc3)C2)C1 = -13.7
2. COc1cccc(-c2cncnc2NCCc2cnc[nH]2)c1 = -20.9
3. Cc1cccc(CNc2cc(-c3ccc(C(=O)N(C)C)cc3)ncn2)c1 = -7.22
4. COc1ccc2[nH]cc(CCNc3cc(-c4ccc(C(=O)N(C)C)cc4)ncn3)c2c1 = -10.4
5. CN(C)c1ncc2nc(-c3ccc(Cl)cc3)c(=O)n(C)c2n1 = 24.8
6. COc1ccc(-c2nc3cnc(N4CCOCC4)nc3n(Cc3cccs3)c2=O)cc1 = 12.3

* * *

- Method notes: AP1 Signaling Pathway (AID 357);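 also: ME-180 reporter cells stimulated with EGF at its EC50 level; % is scaled to controls: 0 for no effect and ±100 for the full control effect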
- Measurement context: ME-180 (cervical carcinoma) AP-1-bla reporter, EGF-induced, beta-lactamase ratio, 5 h; at 7.69 µM (top of the series) unless noted
Records with an inconclusive call do not appear.
List of activity change, negative = inhibition values.
Measured metric: activity change, negative = inhibition (%)

1. COc1ccccc1CNc1cc(-c2ccccc2OC)ncn1 = -14.2
2. O=C(Nc1ccccc1)N1CC[C@@]2(CCCN(C(=O)c3cc(C(F)(F)F)cc(C(F)(F)F)c3)C2)C1 = -5.62
3. COC(=O)N1CCC2(CC1)CCN(c1ncccn1)CC2 = 3.11
4. CN(C)c1ncnc2ccc(-c3ccccc3C(F)(F)F)cc12 = 0.8
5. CC(C)NC(=O)N1CCC2(CC1)CCN(S(=O)(=O)c1ccccc1)CC2 = -11.1
6. COCCn1c(=O)c(-c2cccs2)nc2cncnc21 = -17.4
7. CS(=O)(=O)N1CCC2(CCN(c3ccncc3)CC2)CC1 = -13.1
8. Cc1cnc(CNc2ccnc(-c3cccc(C#N)c3)n2)cn1 = -12.1
9. COc1cccc(-c2cncnc2NCc2cnc(C)cn2)c1 = -11.3
10. COc1ccc(CNc2cc(-c3cccnc3)ncn2)c(OC)c1 = -14.6
11. N#Cc1cccc(-c2nc3cnc(Nc4ccccc4)nc3n(C[C@H]3CCCO3)c2=O)c1 = -18.6
